# Test name: The drug is tested on Z-017 corresponding to mouse gut metagenome with ENA study accession number: PRJEB37062 and ENA sample accession number: ERS12561816 for biotransformation under anaerobic condition. The drug concentrations were measured over 9 timepoints collected between 0 and 24 hours of incubation by liquid-chromatography-coupled mass spectrometry (LC–MS); note: call rule not given here
# Condition parameters: 2 µM
Readout: Bacterial Biotransformation

Example molecules with recorded Bacterial Biotransformation:
> print(dat)
                                   molecule                    result
1  CCN(CC)CCNC(=O)c1cc(S(C)(=O)=O)ccc1OC [TIAPRIDE]  Compound NOT metabolized
2  Cc1ccc(NC(=O)c2ccc(CN3CCN(C)CC3)cc2)cc1Nc1nccc(-c2cccnc2)n1 [IMATINIB]  Compound NOT metabolized
3  COc1cc(NC(C)CCCN)c2ncccc2c1.O=P(O)(O)O.O=P(O)(O)O (centres undefined) [PRIMAQUINE PHOSPHATE]  Compound NOT metabolized
4  c1ccc2[nH]c(-c3cscn3)nc2c1 [THIABENDAZOLE]  Compound NOT metabolized
5  CN1CCC(=C2c3ccccc3CC(=O)c3sccc32)CC1.O=C(O)/C=C/C(=O)O [KETOTIFEN FUMARATE]  Compound NOT metabolized

[in] Which Bacterial Biotransformation value is on record for O=P1(N(CCCl)CCCl)NCCCO1 (centres undefined) [CYCLOPHOSPHAMIDE ANHYDROUS] ?
[out] Compound NOT metabolized

[in] What would you report for CCN(C(C)=O)c1cccc(-c2ccnc3c(C#N)cnn23)c1 [ZALEPLON] ?
[out] Compound NOT metabolized

[in] Would you kindly repeat that for O=C(NC(Cc1cc(=O)[nH]c2ccccc12)C(=O)O)c1ccc(Cl)cc1 (centres undefined) [REBAMIPIDE] ?
[out] Compound NOT metabolized
